List of pEC50 values.
Target: human D2R/β-arrestin (Homo sapiens (Human))
Experiment: β-Arrestin agonist assay (PathHunter)
Format: cell-based
Settings: CHO-K1 cell line expressing human D2R/β-arrestin
pEC50: −log10 of the molar value.

Fc1ccccc1OCCN1CCC(CNC(c2ccc(Cl)cc2)c2ccccn2)CC1 (centres unmarked) ... < 4.52
O=C(NC(c1ccc(Cl)cc1)c1ccccn1)C1CCN(CCOc2cccc(F)c2)CC1 (single isomer, unassigned) [Compound 4a] ... 5.00 to 6.00
CC1(C(=O)NC(c2ccc(F)cc2)c2ccccn2)CCN(CCOc2ccccc2)CC1 (single isomer, unassigned) [Compound 69b] ... 6.00 to 7.00

pEC50 lookup needed for CC(C)N(CC1CCN(CCOc2ccccc2)CC1)C(c1ccc(Cl)cc1)c1ccccn1 (centres unmarked) [Compound 103] , thanks.
< 4.52

And COc1cccc(C(c2ccccn2)N(C)CC2CCN(CCOc3ccccc3F)CC2)c1 (single isomer, unassigned) [Compound 77a] ?
< 4.52

Then what about the compound CC(C)N(CC1CCN(CCOc2ccccc2)CC1)C(c1ccc(Cl)cc1)c1ccccn1 (single isomer, unassigned) [Compound 103b] ?
6.00 to 7.00

Now this one: O=C(NC(c1ccc(Cl)cc1)c1ccc(F)cn1)C1CCN(CCOc2ccccc2F)CC1 (single isomer, unassigned) [Compound 92a]
< 4.52

For COc1cccc(C(c2ccccn2)N(CC2CCN(CCOc3ccccc3F)CC2)C(C)C)c1 (centres unmarked) then?
< 4.52

Now give it for CC1(C(=O)NC(c2ccc(F)cc2)c2ccccn2)CCN(CCOc2ccccc2)CC1 (centres unmarked) [Compound 69] too.
6.00 to 7.00

Next record, please: c1ccc(OCCN2CCC(CNC(c3ccc4c(c3)OCO4)c3ccccn3)CC2)cc1 (centres unmarked) [Compound 102]
< 4.52

---

Molecular target: human D2R/β-arrestin (Homo sapiens (Human), UniProt P14416)
Sequence (P14416 whole entry): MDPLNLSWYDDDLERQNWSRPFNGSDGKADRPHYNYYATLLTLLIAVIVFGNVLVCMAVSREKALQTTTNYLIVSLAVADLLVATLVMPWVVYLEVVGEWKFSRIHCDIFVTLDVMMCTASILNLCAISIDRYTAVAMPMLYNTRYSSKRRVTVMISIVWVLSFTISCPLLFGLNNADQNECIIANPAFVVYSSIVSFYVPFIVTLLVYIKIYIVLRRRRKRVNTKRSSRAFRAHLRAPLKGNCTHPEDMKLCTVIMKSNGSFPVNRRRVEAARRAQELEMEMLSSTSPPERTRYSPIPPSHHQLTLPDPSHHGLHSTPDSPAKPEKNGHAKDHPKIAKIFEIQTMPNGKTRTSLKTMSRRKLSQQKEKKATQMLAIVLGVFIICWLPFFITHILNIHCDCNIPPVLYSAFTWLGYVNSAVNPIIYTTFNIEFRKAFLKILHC
Test: Gi/cAMP agonist assay (Lance Ultra cAMP, Forskolin)
Type: cell-based
Conditions: CHO-K1 cell line expressing human D2R/β-arrestin
# EC50 per record follows

Here is how some molecules turned out for EC50.
O=C(NC(c1ccc(Cl)cc1)c1ccccn1)C1CCN(CCOc2cc(F)ccc2F)CC1 (stereo not shown) [Compound 14] ... < 100 nM
COc1cccc(C(c2ccccn2)N(C)CC2CCN(CCOc3ccccc3)CC2)c1 (single isomer, unassigned) [Compound 76b] ... 1000 to 10000 nM
CC(C)N(CC1CCN(CCOc2ccccc2)CC1)C(c1ccc(Cl)cc1)c1ccccn1 (stereo not shown) [Compound 103] ... < 100 nM

From here, focus on the item given below.
What does the record list as EC50 for COc1cccc(C(c2ccccn2)N(C)CC2CCN(CCOc3ccccc3F)CC2)c1 (single isomer, unassigned) [Compound 77a] ?
100 to 1000 nM

---

Test: Microsomal stability, rat
Format: in vitro ADME
Endpoint: Microsomal Stability: % remaining after 60 minutes (%)

O=C(NC(c1ccc(F)cc1)c1ccccn1)C1CCN(CCOc2ccccc2Cl)CC1 (centres unmarked) ... 16
O=C(NC(c1cccc(F)c1)c1ccccn1)C1CCN(CCOc2ccccc2)CC1 (centres unmarked) ... 96
O=C(NC(c1ccccc1)c1ccc(Cl)cc1)C1CCN(CCOc2ccccc2)CC1 (centres unmarked) ... 55
O=C(NC(c1ccc(Cl)cc1)c1ccccn1)C1CCN(CCOc2cccc(C(F)(F)F)c2)CC1 (centres unmarked) ... 76
O=C(NC(c1ccc(Cl)cc1)c1ccccn1)C1CCN(CCOc2ccccc2F)CC1 (centres unmarked) ... 44
O=C(NC(c1ccc(Cl)cc1)c1ccccn1)C1CCN(CCOc2ccc3cccnc3c2)CC1 (centres unmarked) ... 75

a: COc1ccccc1OCCN1CCC(C(=O)NC(c2ccc(Cl)cc2)c2ccccn2)CC1 (centres unmarked)
b: O=C(NC(c1ccccn1)C1CCCCC1)C1CCN(CCOc2ccccc2)CC1 (centres unmarked)
Param pair: a , b . Output: the one whose Microsomal Stability: % remaining after 60 minutes is numerically greater. Pick one and reply with its label.
a
(a: 57%, b: 28%)
